# System: K-562 leukemia
# experiment summary: NCI tumour cell line growth inhibition, 48 h
readout type: TGI

Here is how some compounds turned out for TGI.
[[record]]
compound = "COC(=O)C1=CO[C@@H](OC2CC(CO)C(O)C(O)C2O)[C@@H]2[C@@H](C)[C@@H](OC(=O)/C=C/c3ccccc3)[C@@H](O)[C@H]12 (stereo partly drawn) (tested in a mixture with another compound)"
system = "K-562 leukemia"
reported_result = "> 100 µM"

[[record]]
compound = "COc1ccc(-c2noc(C(=O)O)c2-c2cc(OC)c(OC)c(OC)c2)cc1"
system = "K-562 leukemia"
reported_result = "> 100 µM"

[[record]]
compound = "CC1=C2C(=C[C@@](C)(CO)[C@@H]2OC(=O)N(C)CCN(C)C(=O)OC(C)(C)C)C(=O)[C@](C)(O)C12CC2"
system = "K-562 leukemia"
reported_result = "> 50 µM"


Can you give me TGI for all of these, one by one?
1. CCC1(O)C(=O)OCc2c1cc1n(c2=O)Cc2cc3ccccc3nc2-1 (stereo not drawn)
2. Cc1nc(C(N)=O)c(N)n1CCN1CCN(C(=O)CCCCCCCCCCNC2N=CNc3nc[nH]c32)CC1 (stereo not drawn)
3. O=S(=O)(Nc1ccc(Br)cc1)c1ccc(-c2cnc(C3CC3)o2)cc1
4. Cn1c(=O)c(N=Nc2c(=O)n(C)c(=O)n3c2[nH]c2ccccc23)c2[nH]c3ccccc3n2c1=O
5. O=C(Oc1cccnc1)c1cccnc1Nc1ccnc(C(F)(F)F)c1
6. CC[O-].CC[O-].O=C([CH-]C(=O)c1ccccc1)CCCCCCCCC(=O)[CH-]C(=O)c1ccccc1.[Ti+4]

[A]
> 100 µM
> 100 µM
> 100 µM
> 100 µM
> 100 µM
> 100 µM

----------
Please provide measured TGI for the entries that follow.
# Tested on: IGROV1 ovarian
# experiment summary: NCI tumour cell line growth inhibition, 48 h

[[record]]
compound = "CCOC(=O)Oc1c(OC)cc(C(=O)c2ccc(OC)c(O)c2OC)cc1OC"
readout_type = "TGI"
reported_result = "> 100 µM"

[[record]]
compound = "COc1ccc(N2C(=O)C3c4[nH]c5ccc(OCc6ccccc6)cc5c4C4CCC(c5ccccc5)CC4C3C2=O)cc1 (stereo unspecified)"
readout_type = "TGI"
reported_result = "> 74.3 µM"

[[record]]
compound = "O=C(Nc1ccccc1F)c1cc2ccc(O)cc2oc1=Nc1cccc(F)c1"
readout_type = "TGI"
reported_result = "14.6 µM"

[[record]]
compound = "CCO/C(=N/S(=O)(=O)C(F)(F)F)N(C(C)C)C(C)C"
readout_type = "TGI"
reported_result = "> 100 µM"

[[record]]
compound = "O=c1[nH]c(Nc2ccccc2)nc2c1ncn2CC(O)CSCCO (stereo unspecified)"
readout_type = "TGI"
reported_result = "> 100 µM"

[[record]]
compound = "C/C(CC(O)(C(F)(F)F)C(F)(F)F)=N\\NC(N)=O"
readout_type = "TGI"
reported_result = "> 10 µM"

[[record]]
compound = "N#CN1C2CCC1CC(=O)C2"
readout_type = "TGI"
reported_result = "> 100 µM"

[[record]]
compound = "O=C(NCCCOC(=O)CCCCCCCCC(=O)OCCCNC(=O)NC(=O)c1c[nH]c(=O)[nH]c1=O)NC(=O)c1c[nH]c(=O)[nH]c1=O"
readout_type = "TGI"
reported_result = "> 100 µM"

[[record]]
compound = "CN(C)CC(O)c1ccc(Cl)c2ccccc12 (stereo unspecified)"
readout_type = "TGI"
reported_result = "> 85.7 µM"

[[record]]
compound = "C=CCOC(=O)N1c2ccc(O[Si](C)(C)C(C)(C)C)cc2[C@@]23O[C@@]24[C@@H]1C#C/C=C\\C#C[C@]3(O)C(OC)(OC)C[C@@H]4C"
readout_type = "TGI"
reported_result = "> 100 µM"


Hey, quick one: what's TGI for each of these?
1. O=C1C=CC(=O)c2c1ccc1c3ccccc3n(Cc3ccc([N+](=O)[O-])cc3)c21
2. COc1ccc(N2CC(=O)N(C(=O)COc3ccc(OCC(=O)N4C(=O)CN(c5ccc(OC)cc5)C4=S)cc3)C2=S)cc1

[A]
["> 100 µM", "> 100 µM"]
